Overview of reported viral titer (log10 TCID50) across a group of molecules:
assay: qHTS Assay for Inhibitors of Influenza NS1 Protein Function: Viral Replication TCID50; settings: Influenza virus replication in cells, viral titer, at 5 µM, stronger effect = lower value
Results filed as inconclusive are left out.
MEASURE: viral titer (log10 TCID50)

[[record]]
input_smiles = "COc1cc(-c2ccnc3c2c(C)nn3-c2ccccc2)ccc1O"
endpoint_value = 9

[[record]]
input_smiles = "COc1cccc(-c2ccnc3c2c(C)nn3-c2ccc(F)cc2)c1"
endpoint_value = 9

[[record]]
input_smiles = "COc1ccc(-c2c(C#N)c(N)nc3c2c(C)nn3-c2ccc(C)cc2)cc1OC"
endpoint_value = 9

[[record]]
input_smiles = "COc1cc(-c2c(C#N)c(N)nc3c2c(C)nn3-c2ccc(C)cc2)cc(OC)c1OC"
endpoint_value = 9

[[record]]
input_smiles = "Cc1nn(-c2ccccc2)c2nc3[nH]c(=O)[nH]c(=O)c3c(-c3ccc4c(c3)OCO4)c12"
endpoint_value = 8.66

[[record]]
input_smiles = "Cc1nn(-c2ccc(F)cc2)c2nc(N)c(C#N)c(-c3ccc(O)c(O)c3)c12"
endpoint_value = 8.5

[[record]]
input_smiles = "COc1cc(-c2c3c(C)nn(-c4ccccc4)c3nc3[nH]c(=O)[nH]c(=O)c23)ccc1O"
endpoint_value = 8.66

[[record]]
input_smiles = "COc1cc(-c2c(C#N)c(=O)[nH]c3c2c(C)nn3-c2ccccc2)ccc1O"
endpoint_value = 8.5

[[record]]
input_smiles = "COc1cc(-c2c(C#N)c(N)nc3c2c(C)nn3-c2ccc(Cl)cc2)cc(OC)c1OC"
endpoint_value = 9

[[record]]
input_smiles = "COc1cc(-c2c3c(C)nn(-c4ccccc4)c3nc3[nH]c(=O)[nH]c(=O)c23)cc(OC)c1O"
endpoint_value = 8.66

[[record]]
input_smiles = "COc1cccc(-n2nc(C)c3c(-c4ccc(O)c(OC)c4)ccnc32)c1"
endpoint_value = 9

[[record]]
input_smiles = "COc1cc(-c2c(C#N)c(N)nc3c2c(C)nn3-c2ccc(C)cc2)ccc1O"
endpoint_value = 8.5

[[record]]
input_smiles = "COc1ccc(-c2c3c(C)nn(-c4ccccc4)c3nc3[nH]c(=O)[nH]c(=O)c23)cc1OC"
endpoint_value = 9


====

test: qHTS Assay for Inhibitors of Influenza NS1 Protein Function: Viral Replication TCID50; details: Influenza virus replication in cells, at 10 µM, stronger effect = lower value
Results filed as inconclusive are left out. Activity calls are given as the source filed them. How the calls were made is not given here.
MEASURE: viral titer (log10 TCID50)

[[record]]
input_smiles = "COc1cc(-c2c(C#N)c(=O)[nH]c3c2c(C)nn3-c2ccccc2)cc(OC)c1OC"
measure = "viral titer (log10 TCID50)"
endpoint_value = "7.66 (active)"

[[record]]
input_smiles = "COc1ccc(-c2c(C#N)c(N)nc3c2c(C)nn3-c2ccc(Cl)cc2)cc1OC"
measure = "viral titer (log10 TCID50)"
endpoint_value = "9 (active)"

[[record]]
input_smiles = "COc1cc(-c2ccnc3c2c(C)nn3-c2cccc(F)c2)ccc1O"
measure = "viral titer (log10 TCID50)"
endpoint_value = "9 (active)"

[[record]]
input_smiles = "COc1cc(-c2c(C#N)c(N)nc3c2c(C)nn3-c2ccc(F)cc2)cc(OC)c1OC"
measure = "viral titer (log10 TCID50)"
endpoint_value = "9 (active)"

[[record]]
input_smiles = "COc1ccc(-c2c(C#N)c(=O)[nH]c3c2c(C)nn3-c2ccccc2)cc1OC"
measure = "viral titer (log10 TCID50)"
endpoint_value = "8.66 (active)"

[[record]]
input_smiles = "COc1cccc(-c2ccnc3c2c(C)nn3-c2ccc(F)cc2)c1"
measure = "viral titer (log10 TCID50)"
endpoint_value = "8.5 (active)"

[[record]]
input_smiles = "COc1cc(-c2c(C#N)c(N)nc3c2c(C)nn3-c2ccc(C)c(C)c2)cc(OC)c1OC"
measure = "viral titer (log10 TCID50)"
endpoint_value = "9 (active)"

[[record]]
input_smiles = "COc1ccc(-c2c(C#N)c(N)nc3c2c(C)nn3-c2ccccc2)cc1OC"
measure = "viral titer (log10 TCID50)"
endpoint_value = "8.66 (active)"

[[record]]
input_smiles = "COc1cc(-c2c(C(=O)O)cnc3c2c(C)nn3-c2ccc(F)cc2)ccc1O"
measure = "viral titer (log10 TCID50)"
endpoint_value = "8.5 (active)"

[[record]]
input_smiles = "COc1cc(-c2c(C#N)c(=O)[nH]c3c2c(C)nn3-c2ccccc2)ccc1O"
measure = "viral titer (log10 TCID50)"
endpoint_value = "7.66 (active)"


src = PubChem BioAssay AID602454
